Assay System: wild-type human cardiac sodium channel, hNav1.5 (Homo sapiens, UniProt Q14524)
Sequence (Q14524 whole entry): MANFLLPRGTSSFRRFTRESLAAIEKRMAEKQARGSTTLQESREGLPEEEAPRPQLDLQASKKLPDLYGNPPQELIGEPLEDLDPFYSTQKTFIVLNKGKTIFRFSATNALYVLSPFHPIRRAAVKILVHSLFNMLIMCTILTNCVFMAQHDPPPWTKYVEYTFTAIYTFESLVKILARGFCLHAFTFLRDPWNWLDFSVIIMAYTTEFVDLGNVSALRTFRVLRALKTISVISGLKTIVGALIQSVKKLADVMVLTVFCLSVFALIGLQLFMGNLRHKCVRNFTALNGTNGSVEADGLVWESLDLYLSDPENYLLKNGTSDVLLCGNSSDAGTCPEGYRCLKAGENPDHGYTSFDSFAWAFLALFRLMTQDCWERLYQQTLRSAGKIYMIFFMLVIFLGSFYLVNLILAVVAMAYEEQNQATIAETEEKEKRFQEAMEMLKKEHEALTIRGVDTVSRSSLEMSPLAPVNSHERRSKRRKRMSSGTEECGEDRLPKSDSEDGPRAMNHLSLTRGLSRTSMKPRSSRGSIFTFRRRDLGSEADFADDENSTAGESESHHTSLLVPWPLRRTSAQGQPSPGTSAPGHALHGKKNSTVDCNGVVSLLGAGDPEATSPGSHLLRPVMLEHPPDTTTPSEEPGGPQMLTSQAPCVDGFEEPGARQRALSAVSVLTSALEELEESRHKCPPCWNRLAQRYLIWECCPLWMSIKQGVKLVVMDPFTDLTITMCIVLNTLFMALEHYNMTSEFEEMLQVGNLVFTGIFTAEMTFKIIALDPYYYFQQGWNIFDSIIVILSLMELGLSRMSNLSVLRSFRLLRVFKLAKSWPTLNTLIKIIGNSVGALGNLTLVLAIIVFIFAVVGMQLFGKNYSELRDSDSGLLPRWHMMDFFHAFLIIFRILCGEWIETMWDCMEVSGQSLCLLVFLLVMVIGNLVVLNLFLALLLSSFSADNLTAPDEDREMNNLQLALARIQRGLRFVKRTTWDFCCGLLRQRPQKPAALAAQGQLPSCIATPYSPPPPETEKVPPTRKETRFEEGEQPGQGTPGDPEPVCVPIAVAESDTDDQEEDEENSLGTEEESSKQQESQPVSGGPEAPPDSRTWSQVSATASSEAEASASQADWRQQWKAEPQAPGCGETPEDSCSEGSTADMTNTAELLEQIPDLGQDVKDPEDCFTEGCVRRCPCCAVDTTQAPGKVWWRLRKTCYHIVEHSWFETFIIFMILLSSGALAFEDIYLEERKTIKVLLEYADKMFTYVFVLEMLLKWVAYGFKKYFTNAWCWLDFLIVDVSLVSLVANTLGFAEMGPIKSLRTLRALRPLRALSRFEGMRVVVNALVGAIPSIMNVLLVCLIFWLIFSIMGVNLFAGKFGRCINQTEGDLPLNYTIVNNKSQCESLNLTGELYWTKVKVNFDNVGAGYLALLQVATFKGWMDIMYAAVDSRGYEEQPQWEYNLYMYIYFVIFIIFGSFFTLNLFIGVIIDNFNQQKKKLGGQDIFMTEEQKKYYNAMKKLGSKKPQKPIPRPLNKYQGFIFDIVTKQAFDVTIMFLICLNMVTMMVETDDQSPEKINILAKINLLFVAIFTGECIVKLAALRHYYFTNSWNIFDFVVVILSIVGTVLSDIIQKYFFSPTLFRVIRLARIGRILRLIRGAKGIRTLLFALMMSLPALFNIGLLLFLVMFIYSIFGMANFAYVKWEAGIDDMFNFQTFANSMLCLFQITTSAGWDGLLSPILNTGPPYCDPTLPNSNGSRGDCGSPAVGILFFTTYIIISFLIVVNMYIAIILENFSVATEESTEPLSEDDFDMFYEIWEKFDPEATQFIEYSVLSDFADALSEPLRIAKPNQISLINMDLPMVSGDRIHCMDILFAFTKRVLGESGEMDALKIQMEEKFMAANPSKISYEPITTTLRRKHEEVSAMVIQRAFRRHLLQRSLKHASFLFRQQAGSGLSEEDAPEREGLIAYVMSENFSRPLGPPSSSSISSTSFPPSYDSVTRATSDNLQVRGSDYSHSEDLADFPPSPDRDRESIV
Assay Notes: Late INa screening assay (automated whole cell patch clamp, PatchXpress)
Format: cell-based
Assay Conditions: compound at 1 μM; HEK293 cells expressing hNav1.5; late INa generated with 10 μM Tefluthrin (or 50 nM ATX II); read-out: LateINa_1 uM (percent block of late INa)
Label 1 when inhibition at 1 µM is at or above 50%; otherwise label 0.

>>> class_assignment("FC(F)(F)Oc1ccc(-c2ccc3nnc(C(F)(F)OCc4cn(Cc5ccccc5)nn4)n3c2)cc1")
1
>>> class_assignment("FC(F)(F)c1ccc(C#Cc2ccc3nnc(C(F)(F)F)n3c2)cc1")
0
>>> class_assignment("O=C(NCC(F)(F)c1nnc2ccc(-c3ccc(OC(F)(F)F)cc3)cn12)c1ccccn1")
0
>>> class_assignment("Cc1cc(COC(F)(F)c2nnc3ccc(-c4ccc(OC(F)(F)F)cc4)cn23)no1")
1
>>> class_assignment("COCC(F)(F)c1nnc2ccc(C#Cc3ccc(OC(F)(F)F)cc3)cn12")
0
>>> class_assignment("Fc1ccc(Nc2ccc(-c3ccc4nnc(C(F)(F)F)n4c3)cc2)cc1")
0
>>> class_assignment("Cc1ccc(C)c(OCC(O)COCC(F)(F)c2nnc3ccc(-c4ccc(OC(F)(F)F)cc4)cn23)c1 (centres unmarked)")
0
>>> class_assignment("N#CCOCc1c(-c2ccc(OC(F)(F)F)cc2)ccc2nnc(C(F)(F)F)n12")
0
>>> class_assignment("Cc1ccc(COCc2nnc3ccc(-c4ccc(OC(F)(F)F)cc4)cn23)nc1")
0
>>> class_assignment("COc1cc(OC(F)(F)F)ccc1-c1ccc2nnc(C(F)(F)F)n2c1")
1
>>> class_assignment("FC(F)(F)Oc1ccc(-c2ccc3nnc(C(F)(F)OCc4ccc5nccnc5c4)n3c2)cc1")
0
>>> class_assignment("FC(F)(F)Oc1ccc(-c2ccc3nnc(C(F)(F)COCc4cc(-c5ccc(Cl)cc5)no4)n3c2)cc1")
0
>>> class_assignment("Cc1cc(COC(F)(F)c2nnc3ccc(-c4ccc(OC(F)(F)F)cc4)cn23)c2ccccc2n1")
0
>>> class_assignment("CC(OC(F)(F)c1nnc2ccc(-c3ccc(OC(F)(F)F)cc3)cn12)c1ccc(Cl)cc1 (centres unmarked)")
1
>>> class_assignment("FC(F)(F)c1nnc2ccc(-c3ccc(OC4CC4)cc3)cn12")
0
>>> class_assignment("FC(F)(F)Oc1ccc(-c2ccc3nnc(C(F)(F)OCc4cn(-c5ccccc5)nn4)n3c2)cc1")
0

====

Assay System: wild-type human cardiac sodium channel, hNav1.5 (Homo sapiens, UniProt Q14524)
Assay Notes: Late INa screening assay (automated whole cell patch clamp, PatchXpress)
Assay type: cell-based
Assay Conditions: compound at 1 μM; HEK293 cells expressing hNav1.5; late INa generated with 10 μM Tefluthrin (or 50 nM ATX II); read-out: LateINa_1 uM (percent block of late INa)
The following compounds are listed with their measured inhibition at 1 µM values.
Quantity Measured: inhibition at 1 µM (%)

>>> reported_measurement("FC(F)(F)Cc1nnc2ccc(-c3ccc(Oc4ccccc4)cc3)nn12 [BHN-31]")
57.5
>>> reported_measurement("FC(F)(F)c1ccc(-c2ccc3nnc(C(F)(F)OCC4CC4)n3c2)cn1 [BHN-275]")
28.6
>>> reported_measurement("FC(F)(F)Oc1ccc(-c2ccc3nnc(C(F)(F)F)n3c2)c(-c2cccnc2)c1 [BHN-132]")
29.4
>>> reported_measurement("FC(F)(F)Oc1ccc(-c2ccc3nnc(C#CC4CC4)n3c2)cc1 [BHN-171]")
49.3
>>> reported_measurement("FC(F)c1nnc2cnc(-c3ccc(OC(F)(F)F)cc3)cn12 [BHN-23]")
53.5
